- Target Entity: T1, 017-mut3 peptide (…)/HLA-A*02:01 complex on T2 cells (human)
- T1 construct: Alanine mutant at position 3
- Method Description: flow cytometry, phage on peptide-loaded T2 cells
Readout Type: MFI

>>> readout_number("EXT017-53 scFv phage clone (scFv, full-length scFv with His+HA tags; also called EXT017-53 phage) scFv: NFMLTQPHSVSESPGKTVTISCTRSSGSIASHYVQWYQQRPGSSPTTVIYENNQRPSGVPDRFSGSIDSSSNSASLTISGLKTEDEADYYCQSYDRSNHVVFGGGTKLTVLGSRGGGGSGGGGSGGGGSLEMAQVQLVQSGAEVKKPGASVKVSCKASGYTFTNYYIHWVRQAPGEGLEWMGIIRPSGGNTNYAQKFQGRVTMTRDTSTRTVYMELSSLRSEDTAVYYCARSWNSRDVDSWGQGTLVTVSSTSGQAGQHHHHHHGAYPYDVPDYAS")
5780
